- assayed_system: FGFR1 (UniProt P11362)
- Sequence (P11362 whole entry, looked up): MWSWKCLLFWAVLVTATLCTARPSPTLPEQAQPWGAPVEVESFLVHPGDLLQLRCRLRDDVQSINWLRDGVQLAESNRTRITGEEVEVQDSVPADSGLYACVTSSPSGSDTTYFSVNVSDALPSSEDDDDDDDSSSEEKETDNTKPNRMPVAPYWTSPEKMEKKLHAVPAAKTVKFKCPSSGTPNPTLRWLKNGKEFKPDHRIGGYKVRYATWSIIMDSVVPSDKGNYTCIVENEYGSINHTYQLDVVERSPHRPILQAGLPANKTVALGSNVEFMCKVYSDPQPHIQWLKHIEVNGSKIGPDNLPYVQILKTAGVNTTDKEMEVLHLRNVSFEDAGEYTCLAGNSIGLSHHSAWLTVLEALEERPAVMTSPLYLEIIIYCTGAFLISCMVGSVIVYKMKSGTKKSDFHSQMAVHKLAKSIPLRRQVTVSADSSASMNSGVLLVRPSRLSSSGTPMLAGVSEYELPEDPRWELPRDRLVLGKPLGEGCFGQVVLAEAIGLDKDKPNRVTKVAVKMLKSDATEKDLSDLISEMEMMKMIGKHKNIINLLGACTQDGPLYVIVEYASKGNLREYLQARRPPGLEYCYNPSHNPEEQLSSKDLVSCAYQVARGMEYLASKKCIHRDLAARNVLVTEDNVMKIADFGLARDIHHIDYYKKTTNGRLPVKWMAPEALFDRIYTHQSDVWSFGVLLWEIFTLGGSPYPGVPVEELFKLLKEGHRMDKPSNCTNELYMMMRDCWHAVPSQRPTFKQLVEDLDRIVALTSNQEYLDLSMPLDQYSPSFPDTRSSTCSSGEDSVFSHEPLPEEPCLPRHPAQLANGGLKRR
- test_summary: phosphorylation enrichment, bacterial display (enrichment ratio); higher = better substrate or ligand; peptides without Tyr show the background;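 note: 11-residue human phosphosite peptides and single-mutation variants displayed on the E. coli surface, counted by deep sequencing, each peptide's frequency after selection divided by its frequency in the unselected input library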;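 note: frequency after pTyr selection over input frequency; kinase dosed for 20-30% of maximal phosphorylation in three min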
phosphorylation enrichment overview
assay_readout: phosphorylation enrichment

[[record]]
sequence_text = "SSAETYSRMRL [NBEAL2_Y1835]"
assay_readout = "phosphorylation enrichment"
readout_value = 0.393

[[record]]
sequence_text = "EQSGSYIWVLA [DLG1_Y895_P899L]"
assay_readout = "phosphorylation enrichment"
readout_value = 1.11

[[record]]
sequence_text = "PSAVAYPKRSQ [MARK3_Y432_V429A]"
assay_readout = "phosphorylation enrichment"
readout_value = 0.382

[[record]]
sequence_text = "YLGEEYVKAVG [TF_Y674]"
assay_readout = "phosphorylation enrichment"
readout_value = 0.446

[[record]]
sequence_text = "SEELHYYVQNH [UQCRC2_Y207_F208Y]"
assay_readout = "phosphorylation enrichment"
readout_value = 3.68

[[record]]
sequence_text = "IKGNMYFENSF [EGFR_Y112_R108K_YF]"
assay_readout = "phosphorylation enrichment"
readout_value = 0.516

[[record]]
sequence_text = "MSNVPYVMNRG [ACAT1_Y161]"
assay_readout = "phosphorylation enrichment"
readout_value = 0.464

[[record]]
sequence_text = "LFSDHYSPSGR [TMPRSS12_Y23_YF]"
assay_readout = "phosphorylation enrichment"
readout_value = 0.446

[[record]]
sequence_text = "NTGDDYDLFGG [PTPN11_Y63_Y62D_YF]"
assay_readout = "phosphorylation enrichment"
readout_value = 0.546

[[record]]
sequence_text = "RGFRQDAFDGK [HLA-A_Y140_YF]"
assay_readout = "phosphorylation enrichment"
readout_value = 0.488

[[record]]
sequence_text = "PLKFLYPNIDR [STAT1_Y668_K673R_YF]"
assay_readout = "phosphorylation enrichment"
readout_value = 0.443

[[record]]
sequence_text = "KYLENYLNCLL [PLD2_Y169_R172C]"
assay_readout = "phosphorylation enrichment"
readout_value = 0.989

[[record]]
sequence_text = "KERNQYGEVMV [MMP21_Y347]"
assay_readout = "phosphorylation enrichment"
readout_value = 0.502

[[record]]
sequence_text = "TFEYRYLEDRD [CNOT3_Y746]"
assay_readout = "phosphorylation enrichment"
readout_value = 0.935

